Source: ChEMBL document CHEMBL4706752

// endpoint IC50 / system Cytochrome P450 2C9 (Homo sapiens, UniProt P11712)
measured_attribute: IC50 (µM)

- CC(C)(O)CC(=O)N[C@@H]1CC[C@@]2(S(=O)(=O)c3ccc(F)cc3)c3ccc(C(F)(C(F)(F)F)C(F)(F)F)cc3CC[C@@H]12: 12
- CC(C)(O)CC(=O)N[C@@H]1CC[C@@]2(S(=O)(=O)c3ccc(F)cc3)c3ccc(C(F)(C(F)(F)F)C(F)(F)F)nc3CC[C@@H]12: 8.5
- CC(C)(O)C(=O)N[C@@H]1CC[C@@]2(S(=O)(=O)c3ccc(F)cc3)c3ccc(C(F)(C(F)(F)F)C(F)(F)F)nc3CC[C@@H]12: 3.2
- O=C(N[C@@H]1CC[C@@]2(S(=O)(=O)c3ccc(F)cc3)c3ccc(C(F)(C(F)(F)F)C(F)(F)F)nc3CC[C@@H]12)C1CCS(=O)(=O)CC1: 9.5
- C[C@@](O)(CS(C)(=O)=O)C(=O)N[C@@H]1CC[C@@]2(S(=O)(=O)c3ccc(F)cc3)c3ccc(C(F)(C(F)(F)F)C(F)(F)F)cc3CC[C@@H]12: 12

---

Assay: Metabolic stability in human liver microsomes assessed as compound remaining after 10 mins
Assay type: ADME, Microsome
Conditions: read-out: Stabilty
Parameter remaining at 10 min: see the listing below.
measured_attribute: remaining at 10 min (%)

* N#CCCN1C(=O)CC[C@H]1C(=O)N1CC[C@@]2(S(=O)(=O)c3ccc(F)cc3)c3ccc(C(F)(C(F)(F)F)C(F)(F)F)nc3CC[C@@H]12 | 100
* C[C@](O)(CS(C)(=O)=O)C(=O)N[C@@H]1CC[C@@]2(S(=O)(=O)c3ccc(F)cc3)c3ccc(C(F)(C(F)(F)F)C(F)(F)F)cc3CC[C@@H]12 | 89
* O=C(N[C@@H]1CC[C@@]2(S(=O)(=O)c3ccc(F)cc3)c3ccc(C(F)(C(F)(F)F)C(F)(F)F)nc3CC[C@@H]12)C1CCS(=O)(=O)CC1 | 100
* CC(C)(O)C(=O)N[C@@H]1CC[C@@]2(S(=O)(=O)c3ccc(F)cc3)c3ccc(C(F)(C(F)(F)F)C(F)(F)F)nc3CC[C@@H]12 | 100
* N#CCCN1C(=O)CC[C@H]1C(=O)N1CC[C@@]2(S(=O)(=O)c3ccc(F)cc3)c3ccc(C(F)(C(F)(F)F)C(F)(F)F)cc3CC[C@@H]12 | 92
* C[C@@](O)(CS(C)(=O)=O)C(=O)N[C@@H]1CC[C@@]2(S(=O)(=O)c3ccc(F)cc3)c3ccc(C(F)(C(F)(F)F)C(F)(F)F)cc3CC[C@@H]12 | 98
* O=C(C1CCS(=O)(=O)CC1)N1CC[C@@]2(S(=O)(=O)c3ccc(F)cc3)c3ccc(C(F)(C(F)(F)F)C(F)(F)F)nc3CC[C@@H]12 | 100
* C[C@](O)(CS(C)(=O)=O)C(=O)N[C@@H]1CC[C@@]2(S(=O)(=O)c3ccc(F)cc3)c3ccc(C(F)(C(F)(F)F)C(F)(F)F)nc3CC[C@@H]12 | 97
* N#CCCN1C(=O)CC[C@H]1C(=O)N1CC[C@@]2(S(=O)(=O)c3ccc(F)cc3)c3ncc(C(F)(C(F)(F)F)C(F)(F)F)cc3CC[C@@H]12 | 83
* O=C(N[C@@H]1CC[C@@]2(S(=O)(=O)c3ccc(F)cc3)c3ccc(C(F)(C(F)(F)F)C(F)(F)F)cc3CC[C@@H]12)C1CCS(=O)(=O)CC1 | 100
* C[C@@](O)(CS(C)(=O)=O)C(=O)N[C@@H]1CC[C@@]2(S(=O)(=O)c3ccc(F)cc3)c3ccc(C(F)(C(F)(F)F)C(F)(F)F)nc3CC[C@@H]12 | 89
* CC(C)(O)CC(=O)N[C@@H]1CC[C@@]2(S(=O)(=O)c3ccc(F)cc3)c3ccc(C(F)(C(F)(F)F)C(F)(F)F)cc3CC[C@@H]12 | 97
* O=C(C1CCS(=O)(=O)CC1)N1CC[C@@]2(S(=O)(=O)c3ccc(F)cc3)c3ccc(C(F)(C(F)(F)F)C(F)(F)F)cc3CC[C@@H]12 | 93
* O=C(C1CCS(=O)(=O)CC1)N1CC[C@@]2(S(=O)(=O)c3ccc(F)cc3)c3ncc(C(F)(C(F)(F)F)C(F)(F)F)cc3CC[C@@H]12 | 100
* O=C(C1CCS(=O)(=O)CC1)N1CC[C@@]2(S(=O)(=O)c3ccc(F)cc3)c3cnc(C(F)(C(F)(F)F)C(F)(F)F)cc3CC[C@@H]12 | 92
* CC(C)(O)CC(=O)N[C@@H]1CC[C@@]2(S(=O)(=O)c3ccc(F)cc3)c3ccc(C(F)(C(F)(F)F)C(F)(F)F)nc3CC[C@@H]12 | 100
* N#CCCN1C(=O)CC[C@H]1C(=O)N1CC[C@@]2(S(=O)(=O)c3ccc(F)cc3)c3cnc(C(F)(C(F)(F)F)C(F)(F)F)cc3CC[C@@H]12 | 100
